B1: HDV Ribozyme (parent)
chain: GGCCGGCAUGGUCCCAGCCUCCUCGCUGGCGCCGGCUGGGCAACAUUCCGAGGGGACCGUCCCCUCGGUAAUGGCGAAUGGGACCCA

- Variants of: B1
- experimentNotes: self-cleavage, relative activity (ratio to wild type); higher = more cleavage; co-transcriptional
quantityKind: self-cleavage

Below, 3 variants whose answers are already recorded.
residuechange="U60C G74A" result=0.591
residuechange="C44U A51U" result=0.789
residuechange="C26A C85U" result=0.942

# evaluate next
Inquiry: Retrieve self-cleavage measured for G6A C49G and print it.
Reply text: 0.222

# credit: the RNAGym collection of RNA variant scans (doi:10.7554/elife.80360)
